Taken from BigSolDB 2.1.

Conditions: in ethanol, 308.55 K
readout-type: solubility (mole fraction)

{"compound": "CC(=O)C1C(=O)C=C(C)OC1=O (stereo unspecified)", "readout-type": "solubility (mole fraction)", "recorded-result": 0.0135}

----------
Conditions: in DMF, 315.85 K

{"compound": "CC(=O)C1C(=O)C=C(C)OC1=O (stereo unspecified)", "solubility (mole fraction)": 0.181}

----------
Conditions: in ethyl acetate, 292.45 K
readout-type: solubility (mole fraction)

{"compound": "CC(=O)C1C(=O)C=C(C)OC1=O (stereo unspecified)", "recorded-result": 0.0571}

----------
Settings: in DMAc, 300.45 K

{"compound": "CC(=O)C1C(=O)C=C(C)OC1=O (stereo unspecified)", "solubility (mole fraction)": 0.135}

----------
Settings: in isopropanol, 292.35 K

{"compound": "CC(=O)C1C(=O)C=C(C)OC1=O (stereo unspecified)", "solubility (mole fraction)": 0.0056}

----------
Details: in n-propanol, 312.65 K
readout-type: solubility (mole fraction)

{"compound": "CC(=O)C1C(=O)C=C(C)OC1=O (stereo unspecified)", "recorded-result": 0.0187}

----------
Conditions: in 2-butanone, 312.15 K
readout-type: solubility (mole fraction)

{"compound": "CC(=O)C1C(=O)C=C(C)OC1=O (stereo unspecified)", "recorded-result": 0.0315}

----------
Settings: in methanol, 316.05 K
readout-type: solubility (mole fraction)

{"compound": "CC(=O)C1C(=O)C=C(C)OC1=O (stereo unspecified)", "recorded-result": 0.022}

----------
Conditions: in n-propanol, 300.55 K

{"molecule": "CC(=O)C1C(=O)C=C(C)OC1=O (stereo unspecified)", "solubility (mole fraction)": 0.00974}

----------
Conditions: in DMF, 307.85 K

{"molecule": "CC(=O)C1C(=O)C=C(C)OC1=O (stereo unspecified)", "solubility (mole fraction)": 0.139}

----------
Conditions: in methanol, 300.15 K
readout-type: solubility (mole fraction)

{"compound": "CC(=O)C1C(=O)C=C(C)OC1=O (stereo unspecified)", "recorded-result": 0.0104}

----------
Conditions: in DMAc, 312.15 K

{"compound": "CC(=O)C1C(=O)C=C(C)OC1=O (stereo unspecified)", "solubility (mole fraction)": 0.19}

----------
Conditions: in isopropanol, 288.05 K
readout-type: solubility (mole fraction)

{"compound": "CC(=O)C1C(=O)C=C(C)OC1=O (stereo unspecified)", "readout-type": "solubility (mole fraction)", "recorded-result": 0.00448}

----------
Conditions: in acetone, 296.15 K

{"compound": "CC(=O)C1C(=O)C=C(C)OC1=O (stereo unspecified)", "solubility (mole fraction)": 0.0587}

----------
Settings: in 2-butanone, 292.15 K
readout-type: solubility (mole fraction)

{"molecule": "CC(=O)C1C(=O)C=C(C)OC1=O (stereo unspecified)", "recorded-result": 0.0153}

----------
Conditions: in ethyl acetate, 295.95 K
readout-type: solubility (mole fraction)

{"compound": "CC(=O)C1C(=O)C=C(C)OC1=O (stereo unspecified)", "readout-type": "solubility (mole fraction)", "recorded-result": 0.0646}

----------
Settings: in ethyl acetate, 288.45 K
readout-type: solubility (mole fraction)

{"compound": "CC(=O)C1C(=O)C=C(C)OC1=O (stereo unspecified)", "recorded-result": 0.0499}

----------
Conditions: in methanol, 308.55 K
readout-type: solubility (mole fraction)

{"compound": "CC(=O)C1C(=O)C=C(C)OC1=O (stereo unspecified)", "recorded-result": 0.0149}

----------
Conditions: in ethyl formate, 300.05 K

{"molecule": "CC(=O)C1C(=O)C=C(C)OC1=O (stereo unspecified)", "solubility (mole fraction)": 0.0765}

----------
Details: in n-propanol, 316.35 K

{"compound": "CC(=O)C1C(=O)C=C(C)OC1=O (stereo unspecified)", "solubility (mole fraction)": 0.0224}

----------
Conditions: in acetonitrile, 296.25 K
readout-type: solubility (mole fraction)

{"compound": "CC(=O)C1C(=O)C=C(C)OC1=O (stereo unspecified)", "readout-type": "solubility (mole fraction)", "recorded-result": 0.0557}

----------
Conditions: in ethyl formate, 308.45 K

{"compound": "CC(=O)C1C(=O)C=C(C)OC1=O (stereo unspecified)", "solubility (mole fraction)": 0.104}

----------
Conditions: in ethyl acetate, 304.05 K

{"compound": "CC(=O)C1C(=O)C=C(C)OC1=O (stereo unspecified)", "solubility (mole fraction)": 0.081}

----------
Details: in acetone, 316.25 K

{"compound": "CC(=O)C1C(=O)C=C(C)OC1=O (stereo unspecified)", "solubility (mole fraction)": 0.13}

----------
Details: in ethyl formate, 291.95 K
readout-type: solubility (mole fraction)

{"compound": "CC(=O)C1C(=O)C=C(C)OC1=O (stereo unspecified)", "readout-type": "solubility (mole fraction)", "recorded-result": 0.061}

----------
Conditions: in n-propanol, 287.95 K

{"molecule": "CC(=O)C1C(=O)C=C(C)OC1=O (stereo unspecified)", "solubility (mole fraction)": 0.00523}

----------
Settings: in DMF, 299.95 K

{"compound": "CC(=O)C1C(=O)C=C(C)OC1=O (stereo unspecified)", "solubility (mole fraction)": 0.105}

----------
Details: in ethyl formate, 288.05 K

{"compound": "CC(=O)C1C(=O)C=C(C)OC1=O (stereo unspecified)", "solubility (mole fraction)": 0.0536}

----------
Settings: in acetonitrile, 316.25 K
readout-type: solubility (mole fraction)

{"molecule": "CC(=O)C1C(=O)C=C(C)OC1=O (stereo unspecified)", "recorded-result": 0.123}

----------
Conditions: in ethanol, 300.35 K
readout-type: solubility (mole fraction)

{"compound": "CC(=O)C1C(=O)C=C(C)OC1=O (stereo unspecified)", "recorded-result": 0.00941}

----------
Conditions: in DMSO, 292.15 K

{"compound": "CC(=O)C1C(=O)C=C(C)OC1=O (stereo unspecified)", "solubility (mole fraction)": 0.0314}

----------
Conditions: in ethanol, 312.65 K
readout-type: solubility (mole fraction)

{"compound": "CC(=O)C1C(=O)C=C(C)OC1=O (stereo unspecified)", "recorded-result": 0.0176}

----------
Details: in n-pentanol, 291.95 K

{"compound": "CC(=O)C1C(=O)C=C(C)OC1=O (stereo unspecified)", "solubility (mole fraction)": 0.00758}

----------
Details: in methanol, 292.35 K
readout-type: solubility (mole fraction)

{"compound": "CC(=O)C1C(=O)C=C(C)OC1=O (stereo unspecified)", "recorded-result": 0.00716}

----------
Conditions: in acetone, 304.15 K

{"compound": "CC(=O)C1C(=O)C=C(C)OC1=O (stereo unspecified)", "solubility (mole fraction)": 0.0812}

----------
Conditions: in ethanol, 316.15 K

{"molecule": "CC(=O)C1C(=O)C=C(C)OC1=O (stereo unspecified)", "solubility (mole fraction)": 0.0217}

----------
Settings: in n-propanol, 296.35 K

{"molecule": "CC(=O)C1C(=O)C=C(C)OC1=O (stereo unspecified)", "solubility (mole fraction)": 0.00836}

----------
Settings: in ethyl formate, 304.15 K

{"compound": "CC(=O)C1C(=O)C=C(C)OC1=O (stereo unspecified)", "solubility (mole fraction)": 0.0894}

----------
Details: in ethanol, 303.65 K

{"compound": "CC(=O)C1C(=O)C=C(C)OC1=O (stereo unspecified)", "solubility (mole fraction)": 0.0109}

----------
Conditions: in ethyl formate, 315.85 K

{"compound": "CC(=O)C1C(=O)C=C(C)OC1=O (stereo unspecified)", "solubility (mole fraction)": 0.135}

----------
Conditions: in ethanol, 291.95 K
readout-type: solubility (mole fraction)

{"molecule": "CC(=O)C1C(=O)C=C(C)OC1=O (stereo unspecified)", "recorded-result": 0.00652}

----------
Details: in isopropanol, 308.15 K
readout-type: solubility (mole fraction)

{"compound": "CC(=O)C1C(=O)C=C(C)OC1=O (stereo unspecified)", "recorded-result": 0.0127}

----------
Details: in methanol, 303.95 K

{"molecule": "CC(=O)C1C(=O)C=C(C)OC1=O (stereo unspecified)", "solubility (mole fraction)": 0.0113}

----------
Conditions: in DMSO, 288.15 K

{"molecule": "CC(=O)C1C(=O)C=C(C)OC1=O (stereo unspecified)", "solubility (mole fraction)": 0.0267}

----------
Conditions: in n-pentanol, 315.95 K

{"molecule": "CC(=O)C1C(=O)C=C(C)OC1=O (stereo unspecified)", "solubility (mole fraction)": 0.0284}

----------
Conditions: in 2-butanone, 304.05 K

{"compound": "CC(=O)C1C(=O)C=C(C)OC1=O (stereo unspecified)", "solubility (mole fraction)": 0.0227}

----------
Conditions: in isopropanol, 300.15 K

{"compound": "CC(=O)C1C(=O)C=C(C)OC1=O (stereo unspecified)", "solubility (mole fraction)": 0.00876}

----------
Settings: in acetonitrile, 312.65 K

{"compound": "CC(=O)C1C(=O)C=C(C)OC1=O (stereo unspecified)", "solubility (mole fraction)": 0.107}
